- SUBJECT OF TEST: B1R receptor of the rat (CHO K1 cells stably transfected with the B1R gene of the rat) (Rattus norvegicus, UniProt P97583)
- Construct: expressed in transfected cells; host or cells: CHO K1 cells (Chinese hamster ovary), stably transfected
- Sequence (P97583 1-337): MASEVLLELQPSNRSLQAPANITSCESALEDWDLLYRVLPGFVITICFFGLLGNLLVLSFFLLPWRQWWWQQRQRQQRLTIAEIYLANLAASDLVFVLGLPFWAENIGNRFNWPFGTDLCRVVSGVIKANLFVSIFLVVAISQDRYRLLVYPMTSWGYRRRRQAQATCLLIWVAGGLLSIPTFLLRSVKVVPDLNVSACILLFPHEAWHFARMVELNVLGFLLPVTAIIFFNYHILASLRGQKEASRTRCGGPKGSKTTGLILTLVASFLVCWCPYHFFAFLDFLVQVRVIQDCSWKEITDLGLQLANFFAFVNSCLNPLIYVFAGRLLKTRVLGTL
- METHOD: Functional study on the bradykinin receptor 1 (B1R), Ca2+ fluorescence (Fluo-4) FLIPR/Novostar assay, rB1R cells
- Type: cell-based
- DETAILS: CHO-K1, 10 μM, read-out: % inhibition (rat B1R) at 10 μM

COMPOUND: CN1CCN(C(=O)CN2CCC(N(C)C(=O)c3ccc4c(c3)[C@H](NC(=O)c3ccccc3Cl)CC4)CC2)CC1
inhibition at 10 µM / %: 41

COMPOUND: CN(C(=O)c1ccc2c(c1)[C@H](NC(=O)c1ccccc1Cl)CC2)C1CCN(c2ccncc2C(F)(F)F)CC1
inhibition at 10 µM / %: 101

COMPOUND: CN(C(=O)c1ccc2c(c1)[C@H](NC(=O)Cc1ccccc1Cl)CC2)C1CCN(c2ccncc2)CC1
inhibition at 10 µM / %: 105

COMPOUND: CN(C(=O)c1ccc2c(c1)[C@@H](NC(=O)c1ccccc1Cl)CC2)C1CCN(c2ccncc2)CC1
inhibition at 10 µM / %: 105

COMPOUND: Cc1cc(N2CCC(N(C)C(=O)c3ccc4c(c3)[C@H](NC(=O)C(C)(C)F)CC4)CC2)ccn1
inhibition at 10 µM / %: 100

COMPOUND: CN(C)c1ncc2c(n1)CCN(C1CCC(N(C)C(=O)c3ccc4c(c3)[C@H](NC(=O)c3ccccc3Cl)CC4)CC1)C2 (stereo partly shown)
inhibition at 10 µM / %: 103

COMPOUND: Cc1cc(N2CCC(N(C)C(=O)c3ccc4c(c3)[C@H](NC(=O)c3cccc(F)c3Cl)CC4)CC2)nc(C)n1
inhibition at 10 µM / %: 98

====

- SUBJECT OF TEST: human B1R receptor (CHO K1 cells stably transfected with the human B1R gene) (Homo sapiens, UniProt P46663)
- Construct: expressed in transfected cells; host or cells: CHO K1 cells (Chinese hamster ovary), stably transfected
- Sequence (P46663 whole entry): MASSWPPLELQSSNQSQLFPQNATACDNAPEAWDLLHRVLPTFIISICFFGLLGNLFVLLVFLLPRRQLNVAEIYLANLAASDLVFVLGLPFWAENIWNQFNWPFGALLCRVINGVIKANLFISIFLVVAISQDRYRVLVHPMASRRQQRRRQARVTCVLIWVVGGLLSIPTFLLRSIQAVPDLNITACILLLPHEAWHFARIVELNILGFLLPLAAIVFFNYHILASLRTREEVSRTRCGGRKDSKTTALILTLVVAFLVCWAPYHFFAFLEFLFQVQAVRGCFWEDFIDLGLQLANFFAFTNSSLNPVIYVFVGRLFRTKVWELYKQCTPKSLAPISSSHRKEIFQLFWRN
- METHOD: Functional study on the bradykinin receptor 1 (B1R), Ca2+ fluorescence (Fluo-4) FLIPR/Novostar assay, hB1R cells
- Assay type: cell-based
- DETAILS: CHO-K1, read-out: % Inhibition (h-B1R) at 10 μM
PROPERTY MEASURED: inhibition at 10 µM (%)

COMPOUND: CN(C(=O)c1ccc2c(c1)C(N(C)C(=O)c1cnccc1C(F)(F)F)CC2)C1CCN(c2ccncc2)CC1 (stereo not shown)
PROPERTY MEASURED: inhibition at 10 µM
RECORDED VALUE: 97

COMPOUND: CN(C(=O)c1ccc2c(c1)C(NC(=O)C1CCCCC1)CC2)C1CCN(c2ccc3cnccc3c2)CC1 (stereo not shown)
PROPERTY MEASURED: inhibition at 10 µM
RECORDED VALUE: 99

COMPOUND: CN(C(=O)c1ccc2c(c1)CCC2NC(=O)C(C)(C)c1ccccc1Cl)C1CCN(c2ccncc2)CC1 (stereo not shown)
PROPERTY MEASURED: inhibition at 10 µM
RECORDED VALUE: 77

COMPOUND: Cc1cc(N2CCC(N(C)C(=O)c3ccc4c(c3)C(NC(=O)c3ccccc3Cl)CC4)CC2)cc(C)n1 (stereo not shown)
PROPERTY MEASURED: inhibition at 10 µM
RECORDED VALUE: 100
